method summary: MTT cytotoxicity assay
Assay type: cell-based
stated conditions: human, MCF-7 cells
Classes are defined on CC50 with ranges low range: < 10 µM; mid range: ≥ 10 µM and < 20 µM; high range: ≥ 20 µM

Ask: Hello team, could you let me know which band the following compound falls into: Cc1cccc2c1C(=O)c1nc3ccccc3c(=O)n1-2
Reply: mid range

Ask: Place this compound in its band: O=C1c2ccccc2-n2c1nc1ccccc1c2=O [TRYP, indolo-[2,1-b]-quinazoline-6, 12-Dione, reference compound]
Reply: high range

Ask: Which of the defined bands does the recorded CC50 of O=C1c2cc(Br)ccc2-n2c1nc1ccc(Cl)cc1c2=O sit within?
Reply: high range

Ask: Input O=C1c2cc(Br)ccc2-n2c1nc1cc(Cl)ccc1c2=O ; output its category
Reply: low range

Ask: # bin label for O=C1c2cc(Br)ccc2-n2c1nc1ccccc1c2=O
Reply: mid range

Ask: Determine which band this compound sits in: O=C1c2cc(F)ccc2-n2c1nc1ccccc1c2=O
Reply: mid range

Ask: Class (by measured CC50) for O=C1c2cc([N+](=O)[O-])ccc2-n2c1nc1ccc(Cl)cc1c2=O
Reply: mid range

Ask: Using the reported CC50, which band applies to O=C1c2ccccc2-n2c1nc1cc(Cl)ccc1c2=O ?
Reply: mid range

Ask: Returns: class label. Input: COc1cc2nc3n(c(=O)c2cc1OC)-c1ccc([N+](=O)[O-])cc1C3=O
Reply: mid range

Ask: Class (by measured CC50) for CCN(CC)CCCC(C)Nc1ccnc2cc(Cl)ccc12 (centres unmarked) [CQ, Chloroquine, reference compound]
Reply: high range

Ask: Which bin, given its CC50, does O=C(O)c1ccc2c(=O)n3c(nc2c1)C(=O)c1cc(Br)ccc1-3 occupy?
Reply: high range

Ask: Returns: class label. Input: COC(=O)c1ccc2c(=O)n3c(nc2c1)C(=O)c1cc([N+](=O)[O-])ccc1-3
Reply: mid range

Ask: Dear colleague, I would appreciate it if you could identify the bin for COC(=O)c1ccc2c(=O)n3c(nc2c1)C(=O)c1cc(Br)ccc1-3 and reply at your convenience.
Reply: mid range

Ask: Consider O=C1c2cc([N+](=O)[O-])ccc2-n2c1nc1ccccc1c2=O . To which CC50 class does it belong?
Reply: low range

Ask: The entry to classify is COc1cc2nc3n(c(=O)c2cc1OC)-c1ccc(Br)cc1C3=O ; which class holds it?
Reply: high range

Ask: Tag the class for Cc1ccc2c(c1)C(=O)c1nc3ccccc3c(=O)n1-2
Reply: high range

Ask: # bin lookup: classify O=C1c2cc(Cl)ccc2-n2c1nc1ccccc1c2=O by its CC50
Reply: high range

Ask: Kindly identify the class of O=C1c2cc([N+](=O)[O-])ccc2-n2c1nc1cc(Cl)ccc1c2=O .
Reply: low range

Ask: State the class of the compound shown: O=C(O)c1ccc2c(=O)n3c(nc2c1)C(=O)c1cc([N+](=O)[O-])ccc1-3
Reply: high range

Ask: # bin lookup: classify O=C1c2cc([N+](=O)[O-])ccc2-n2c1nc1cc(Br)ccc1c2=O by its CC50
Reply: mid range
